# Tested on: A2780 (Ovarian Carcinoma)
# test.name: combination Emax (second highest fraction inhibited in the dose matrix, 72 h); higher = more inhibition; extreme values may be limits of the assay
Where combination Emax equals or exceeds 0.8, the correct label is True; where it does not, the label is False.

Cc1c2c(nn1C)CSCc1cc(n(C)n1)CSc1cc(c3ccccc3c1)OCCCc1c(C(=O)O)n(C)c3c-2c(Cl)ccc13 [AZD5991] + C[C@@H]1COCCN1C2=NC(=NC(=C2)C3(CC3)[S@](=N)(=O)C)C4=C5C=CNC5=NC=C4 [AZD6738] (first compound max 1 µM, 7x7, partner max 10 µM)    True
C[C@@H]1COCCN1c1cc(C2([S@](C)(=N)=O)CC2)nc(-c2ccnc3[nH]ccc23)n1 [AZD6738] + O=C(c1cc(Cc2n[nH]c(=O)c3ccccc23)ccc1F)N1CCN(C(=O)C2CC2)CC1 [Olaparib] (first compound max 10 µM, 7x7, partner max 10 µM)    True
Cc1c2c(nn1C)CSCc1cc(n(C)n1)CSc1cc(c3ccccc3c1)OCCCc1c(C(=O)O)n(C)c3c-2c(Cl)ccc13 [AZD5991] + Nc1ccn([C@@H]2O[C@H](CO)[C@@H](O)C2(F)F)c(=O)n1 [Gemcitabine] (first compound max 1 µM, 7x7, partner max 0.3 µM)    True
Cc1cc2ncnn2cc1Nc1ncc2c(n1)n(C1CCOCC1)c(=O)n2C [AZD7648] + C=CCn1c(=O)c2cnc(Nc3ccc(N4CCN(C)CC4)cc3)nc2n1-c1cccc(C(C)(C)O)n1 [AZD1775] (first compound max 10 µM, partner max 1 µM)    True

Ask: Hi team, for NC1(C(=O)N[C@@H](CCO)c2ccc(Cl)cc2)CCN(c2ncnc3[nH]ccc23)CC1 [Capivasertib] + C[C@@H]1COCCN1C2=NC(=NC(=C2)C3(CC3)[S@](=N)(=O)C)C4=C5C=CNC5=NC=C4 [AZD6738] (first compound max 10 µM, 7x7, partner max 10 µM) , is the recorded combination Emax at or above 0.8?
Reply: True

Ask: Hi team, for O=C(c1cc(Cc2n[nH]c(=O)c3ccccc23)ccc1F)N1CCN(C(=O)C2CC2)CC1 [Olaparib] + CN(CC[C@H](CSC1=CC=CC=C1)NC2=C(C=C(C=C2)S(=O)(=O)NC(=O)C3=CC=C(C=C3)N4CCC(CC4)[C@H](C5=CC=CC=C5C6=CC=C(C=C6)Cl)O)S(=O)(=O)C(F)(F)F)CCO [AZD4320] (first compound max 10 µM, 7x7, partner max 1 µM) , is the recorded combination Emax at or above 0.8?
Reply: False

Ask: Hi team, for Cn1cnc2c(F)c(Nc3ccc(Br)cc3Cl)c(C(=O)NOCCO)cc21 [Selumetinib] + CC(C)n1c(=O)n(C)c2cnc3cc(F)c(-c4ccc(OCCCN5CCCCC5)nc4)cc3c21 [AZD1390] (first compound max 10 µM, 7x7, partner max 0.3 µM) , is the recorded combination Emax at or above 0.8?
Reply: False

Ask: Hi team, for CC1(C)CCC(CN2CCN(c3ccc(C(=O)NS(=O)(=O)c4ccc(NCC5CCOCC5)c([N+](=O)[O-])c4)c(Oc4cnc5[nH]ccc5c4)c3)CC2)=C(c2ccc(Cl)cc2)C1 [Venetoclax] + CN(C)CCCOc1ccc(-c2ccc3ncc4c(c3c2)n(C2CCOCC2)c(=O)n4C)cn1 [AZD0156] (first compound max 1 µM, 7x7, partner max 1 µM) , is the recorded combination Emax at or above 0.8?
Reply: False

Ask: Hi team, for CS(=O)(=O)CCNCc1ccc(-c2ccc3ncnc(Nc4ccc(OCc5cccc(F)c5)c(Cl)c4)c3c2)o1 [Lapatinib] + C[C@@H](Oc1cc(-c2cnn(C3CCNCC3)c2)cnc1N)c1c(Cl)ccc(F)c1Cl [Crizotinib] (first compound max 10 µM, 7x7, partner max 10 µM) , is the recorded combination Emax at or above 0.8?
Reply: True

* * *

# Tested on: 22RV1 (Prostate Carcinoma)
# test.name: combination Emax (second highest fraction inhibited in the dose matrix, 72 h); higher = more inhibition; extreme values may be limits of the assay
assay.endpoint: combination Emax
Give the value as a plain number.

CC(=O)c1c(C)c2cnc(Nc3ccc(N4CCNCC4)cn3)nc2n(C2CCCC2)c1=O [Palbociclib] + Cn1cnc2c(F)c(Nc3ccc(Br)cc3Cl)c(C(=O)NOCCO)cc21 [Selumetinib] (first compound max 10 µM, 7x7, partner max 10 µM)    0.463
CCc1c2c(nc3ccc(O)cc13)-c1cc3c(c(=O)n1C2)COC(=O)[C@]3(O)CC [SN-38] + O=C(c1cc(Cc2n[nH]c(=O)c3ccccc23)ccc1F)N1CCN(C(=O)C2CC2)CC1 [Olaparib] (first compound max 0.3 µM, 7x7, partner max 10 µM)    0.697

Ask: Sample CS(=O)(=O)CCNCc1ccc(-c2ccc3ncnc(Nc4ccc(OCc5cccc(F)c5)c(Cl)c4)c3c2)o1 [Lapatinib] + NC1(c2ccc(-c3nc4ccn5c(=O)[nH]nc5c4cc3-c3ccccc3)cc2)CCC1 [MK-2206] (first compound max 10 µM, 7x7, partner max 10 µM) — what was its combination Emax?
Reply: 0.835

* * *

# System: UACC-812 (Breast Carcinoma)
# test.name: combination Emax (second highest fraction inhibited in the dose matrix, 72 h); higher = more inhibition; extreme values may be limits of the assay
assay.endpoint: combination Emax
Give the value as a plain number.

# annotated cases, reported combination Emax shown
C[C@@H](c1ccc2nccn2c1)n1nnc2ncc(-c3cnn(C)c3)nc21 [Savolitinib] + CC1(C)CCC(CN2CCN(c3ccc(C(=O)NS(=O)(=O)c4ccc(NCC5CCOCC5)c([N+](=O)[O-])c4)c(Oc4cnc5[nH]ccc5c4)c3)CC2)=C(c2ccc(Cl)cc2)C1 [Venetoclax] (first compound max 1 µM, 7x7, partner max 1 µM)    0.105
COc1nnc2ccc(N3CCC(c4ccc(OCCN5CCN(C)C(=O)[C@H]5C)cc4)CC3)nn12 [AZD5153] + CCN(CCO)CCCOc1ccc2c(Nc3cc(CC(=O)Nc4cccc(F)c4)[nH]n3)ncnc2c1 [AZD2811] (first compound max 1 µM, 7x7, partner max 1 µM)    0.298
COc1cccc(OCCCN)c1-c1cc(Nc2cnc(C#N)cn2)n[nH]1 [Prexasertib] + CN(C)CCCOc1ccc(-c2ccc3ncc4c(c3c2)n(C2CCOCC2)c(=O)n4C)cn1 [AZD0156] (first compound max 1 µM, 7x7, partner max 1 µM)    0.537
C[C@@H]1COCCN1c1cc(C2([S@](C)(=N)=O)CC2)nc(-c2ccnc3[nH]ccc23)n1 [AZD6738] + Nc1ccn([C@@H]2O[C@H](CO)[C@@H](O)C2(F)F)c(=O)n1 [Gemcitabine] (first compound max 10 µM, 7x7, partner max 0.3 µM)    0.66

Okay, next one:
Ask: Sample CN(C)CCCOc1ccc(-c2ccc3ncc4c(c3c2)n(C2CCOCC2)c(=O)n4C)cn1 [AZD0156] + C=CCn1c(=O)c2cnc(Nc3ccc(N4CCN(C)CC4)cc3)nc2n1-c1cccc(C(C)(C)O)n1 [AZD1775] (first compound max 1 µM, partner max 1 µM) — what was its combination Emax?
Reply: 0.156

* * *

# Test system: IM-9 (Non-Cancerous)
# test.name: combination Emax (second highest fraction inhibited in the dose matrix, 72 h); higher = more inhibition; extreme values may be limits of the assay
assay.endpoint: combination Emax
Give the value as a plain number.

# annotated cases, reported combination Emax shown
COc1cccc(OCCCN)c1-c1cc(Nc2cnc(C#N)cn2)n[nH]1 [Prexasertib] + O=C(c1cc(Cc2n[nH]c(=O)c3ccccc23)ccc1F)N1CCN(C(=O)C2CC2)CC1 [Olaparib] (first compound max 1 µM, 7x7, partner max 10 µM)    1
CC1(C)CCC(CN2CCN(c3ccc(C(=O)NS(=O)(=O)c4ccc(NCC5CCOCC5)c([N+](=O)[O-])c4)c(Oc4cnc5[nH]ccc5c4)c3)CC2)=C(c2ccc(Cl)cc2)C1 [Venetoclax] + C1CN(CCC1(C(=O)N[C@@H](CCO)C2=CC=C(C=C2)Cl)N)C3=NC=NC4=C3C=CN4 [Capivasertib] (first compound max 1 µM, 7x7, partner max 3 µM)    0.632

Okay, next one:
Ask: Sample O=C(c1cc(Cc2n[nH]c(=O)c3ccccc23)ccc1F)N1CCN(C(=O)C2CC2)CC1 [Olaparib] + Cc1c2c(nn1C)CSCc1cc(n(C)n1)CSc1cc(c3ccccc3c1)OCCCc1c(C(=O)O)n(C)c3c-2c(Cl)ccc13 [AZD5991] (first compound max 10 µM, 7x7, partner max 1 µM) — what was its combination Emax?
Reply: 0.903

* * *

# System: LU-165 (Small Cell Lung Carcinoma)
# test.name: combination Emax (second highest fraction inhibited in the dose matrix, 72 h); higher = more inhibition; extreme values may be limits of the assay
assay.endpoint: combination Emax
Give the value as a plain number.

# annotated cases, reported combination Emax shown
COc1cc2ncnc(Nc3ccc(F)c(Cl)c3)c2cc1OCCCN1CCOCC1 [Gefitinib] + CC(C)n1c(=O)n(C)c2cnc3cc(F)c(-c4ccc(OCCCN5CCCCC5)nc4)cc3c21 [AZD1390] (first compound max 10 µM, 7x7, partner max 0.3 µM)    0.173
O=C(c1cc(Cc2n[nH]c(=O)c3ccccc23)ccc1F)N1CCN(C(=O)C2CC2)CC1 [Olaparib] + Cc1c2c(nn1C)CSCc1cc(n(C)n1)CSc1cc(c3ccccc3c1)OCCCc1c(C(=O)O)n(C)c3c-2c(Cl)ccc13 [AZD5991] (first compound max 10 µM, 7x7, partner max 1 µM)    0.141

Ask: Sample CC1(C)CCC(CN2CCN(c3ccc(C(=O)NS(=O)(=O)c4ccc(NCC5CCOCC5)c([N+](=O)[O-])c4)c(Oc4cnc5[nH]ccc5c4)c3)CC2)=C(c2ccc(Cl)cc2)C1 [Venetoclax] + C[C@@H](Nc1cc(F)cc(F)c1)c1cc(C(=O)N(C)C)cc2c(=O)cc(N3CCOCC3)oc12 [AZD8186] (first compound max 1 µM, 7x7, partner max 3 µM) — what was its combination Emax?
Reply: 0.219

Ask: Sample COc1cccc(OCCCN)c1-c1cc(Nc2cnc(C#N)cn2)n[nH]1 [Prexasertib] + Cc1cc2ncnn2cc1Nc1ncc2c(n1)n(C1CCOCC1)c(=O)n2C [AZD7648] (first compound max 1 µM, 7x7, partner max 10 µM) — what was its combination Emax?
Reply: 0.58
